tested on: HCT-116; test: NCI tumour cell line growth inhibition, 48 h
Activity calls are given as the source filed them. Rule as the data show it: active = GI50 up to about 1.1 µM and inactive = higher.
Hello, when you answer, please use one of the following outcomes: active, inactive

Recorded results for 4 compounds are shown here.
• CC(=O)OC1CC2C(=O)CC1(C)C2(C)C (stereo unspecified) = inactive
• Cc1c(NC(=O)Nc2c(Cl)cccc2Cl)c(=O)n(-c2ccccc2)n1C = inactive
• O=C(NP(=O)(N1CC1)N1CC1)c1cc(I)ccc1I = inactive
• c1ccc(-c2c(-c3[nH]c4ccccc4c3-c3ccccc3)[nH]c3ccccc23)cc1 = inactive

Please share the test call associated with CN(C)CCNC(=O)c1cccc2cc3cc(O)ccc3nc12 .
active

Please share the test call associated with COc1ccc(-n2c(-c3ccccc3)cc(-c3cccs3)c2-c2cccs2)cc1 .
inactive

----------
test system: PC-3; test: NCI tumour cell line growth inhibition, 48 h
Active and inactive are the calls of the source. Rule as the data show it: active = GI50 up to about 1.1 µM and inactive = higher.
Hello, when you answer, please use one of the following outcomes: active, inactive

Recorded results for 3 compounds are shown here.
* O=C(NCc1ccc(Cl)c(Cl)c1)c1nc2ccccc2nc1NCc1ccc(Cl)c(Cl)c1 | inactive
* COC(=O)c1cc2c3c(cc(N(C)C)c2[nH]1)N(C(=O)c1cc2cc(OC)c(OC)c(OC)c2[nH]1)CC3CCl (stereo unspecified) | active
* Nc1nc(Cl)cc(NCC2(CO)CC(c3ccccc3)C2)n1 (stereo unspecified) | inactive

Please share the test call associated with CC(C)(C)c1ccc(O)c(CN(Cc2cc(C(C)(C)C)ccc2O)C2CCCCC2)c1 .
inactive

Please share the test call associated with O=C1C(Nc2ccccc2)=CC2=NCCc3n[nH]c1c32 .
inactive

Please share the test call associated with CCn1c2ccccc2c2cc(/N=N\c3ccc(C#N)cc3)ccc21 .
inactive

Please share the test call associated with N#CCCN(CCC#N)c1ccc(/C=C2\N=C(c3ccccc3)N(c3ccc(F)cc3)C2=O)cc1 .
inactive

Please share the test call associated with c1ccc(-c2c(-c3[nH]c4ccccc4c3-c3ccccc3)[nH]c3ccccc23)cc1 .
inactive

Please share the test call associated with OC(C/C=N/N=C/CC(O)(C(F)(F)Cl)C(F)(F)Cl)(C(F)(F)Cl)C(F)(F)Cl .
inactive

Please share the test call associated with c1cn(C23C4C5C6C4C2C6C53)cn1 (stereo unspecified) .
inactive

Please share the test call associated with CC(C)C1(O)C(=O)N(c2c(F)c(F)c(F)c(F)c2F)C(=S)N1CCSc1ccccc1 (stereo unspecified) .
inactive

Please share the test call associated with O=c1[nH]nc(Cc2ccc(Cl)cc2)n1/N=C/c1cccs1 .
inactive

Please share the test call associated with Cc1nc(N)nc2ccccc12 .
inactive

Please share the test call associated with CC(=O)OC1/C(=C/c2ccc([N+](=O)[O-])cc2)C[C@H]2[C@@H]3CC=C4C[C@@H](OC(C)=O)CC[C@]4(C)[C@H]3CC[C@]12C (stereo partly specified) .
inactive

Please share the test call associated with CCCCCCCCCCCCOCCOCCOCCOCCOCCOCC(=O)NC(Cc1ccccc1)C(=O)Oc1ccc([N+](=O)[O-])cc1 (stereo unspecified) .
inactive

Please share the test call associated with Cc1c(NC(=O)Nc2c(Cl)cccc2Cl)c(=O)n(-c2ccccc2)n1C .
inactive

Please share the test call associated with Cc1ccc(S(=O)(=O)OCC(=O)O)cc1 .
inactive

Please share the test call associated with O=C1/C(=C/c2ccc(Cl)c(Cl)c2)CNC/C1=C\c1ccc(Cl)c(Cl)c1 .
inactive

Please share the test call associated with CC1(C)CCC2=C(O1)/C(=N\Nc1ccccc1)c1ccccc1C2=O .
inactive

Please share the test call associated with CNC(=O)CNC(=O)N(C[C@@H]1CCCN1C(=O)[C@H](CC(C)C)NC(=O)OC(C)(C)C)C(C)C .
inactive

Please share the test call associated with COc1ccccc1C[C@@H]1OC2(C=CC(=O)C=C2)O[C@H]1Cc1ccccc1OC .
inactive

----------
test system: ACHN; assay: NCI tumour cell line growth inhibition, 48 h
Activity calls are given as the source filed them. Rule as the data show it: active = GI50 up to about 1.1 µM and inactive = higher. Non-standard residues stand in square brackets, D forms with d. Residues, ends and D or L forms follow the SMILES beside them. *: point of attachment. hSer = N[CH](CCO)C(=O)O; Boc = CC(C)(C)OC(=O)*
quantityMeasured: GI50

Worked cases, answers included:
- NS(=O)(=O)c1ccc(NCc2cnc3ccccc3c2)cc1: > 100 µM (inactive)
- COCCC(NC(=O)C(CC(C)C)NC(=O)OC(C)(C)C)C(N)=O (stereo not drawn) (Boc-Leu-[hSer](Me)-NH2; configuration not given here): > 100 µM (inactive)
- CN1C(=O)C(=CN(C)c2ccccc2)C(=O)N(C)C1=O: > 100 µM (inactive)
- O=[N+]([O-])/C(C(Cl)=C(Cl)Cl)=C(\NCc1ccccc1)Sc1ccccc1: 35.7 µM (inactive)

Give the reported GI50 for this compound. CN/N=C(/CC(=O)c1sc(-n2nc(-c3ccccc3)cc2-c2ccccc2)nc1C)C(=O)Nc1ccc(Cl)c(Cl)c1
25.1 µM (inactive)

Give the reported GI50 for this compound. COC(=O)CCc1cccnc1/C=N/O
> 100 µM (inactive)

Give the reported GI50 for this compound. N#CC1C(=O)NC2=C(CCOc3c2ccc2ccccc32)C1c1ccc(F)cc1 (stereo unspecified)
13.3 µM (inactive)

Give the reported GI50 for this compound. Cc1ccc2nc(NC(=O)/C(Cc3nc4ccc(Cl)cc4nc3O)=N\NC(C)(C)C)sc2c1
> 100 µM (inactive)

Give the reported GI50 for this compound. Fc1cccc(C2ON=C(c3ccccc3)N2C23CC4CC(CC(C4)C2)C3)c1 (stereo unspecified)
> 10 µM (inactive)

Give the reported GI50 for this compound. FC(F)(F)c1ccc2c(c1)nc(Cc1ccc(Cl)c(Cl)c1)n2CC1CCCN2CCCCC12 (stereo unspecified)
22.8 µM (inactive)

Give the reported GI50 for this compound. O=C(CC1(O)C(=O)Nc2c(Cl)cc(Cl)cc21)c1ccco1 (stereo unspecified)
83.6 µM (inactive)

Give the reported GI50 for this compound. N#C/C(=C\c1cc(Br)c(O)c(Br)c1)c1ccccn1
90.6 µM (inactive)

Give the reported GI50 for this compound. CC1(C)CCC2=C(O1)/C(=N\Nc1ccccc1)c1ccccc1C2=O
17.7 µM (inactive)

Give the reported GI50 for this compound. Nc1ccc(-c2nc3cc(F)ccc3s2)cc1
20.6 µM (inactive)

Give the reported GI50 for this compound. COc1ccc(-c2cc(O)c3cc4c(cc3n2)OCO4)c(OC)c1
37.1 µM (inactive)

Give the reported GI50 for this compound. COC(=O)C(=CNC(N)=O)C(=O)OC
> 100 µM (inactive)

Give the reported GI50 for this compound. S=c1c2nc[nH]c2ncn1CCSC1=NC=NC2=NC=NC21 (stereo unspecified)
> 100 µM (inactive)

Give the reported GI50 for this compound. c1ccc(OCCSCCCCCCCCCCSCCOc2ccccc2)cc1
48.1 µM (inactive)

Give the reported GI50 for this compound. COc1c2c(cc3c1C(O)N1CC[C@]34[C@H]3O[C@H]3[C@H](OC)C[C@@H]14)OCO2 (stereo partly specified)
> 100 µM (inactive)

Give the reported GI50 for this compound. COc1cc(CC2CC(c3ccc4c(c3)OCO4)OC2=O)cc(OC)c1OC (stereo unspecified)
> 100 µM (inactive)

Give the reported GI50 for this compound. CCN(CC)CCNC(=O)c1cc2cc(NC(=O)c3cc4cc(NC(=O)c5cc6cc(N)ccc6[nH]5)ccc4[nH]3)ccc2[nH]1
> 100 µM (inactive)

----------
This section lists GI50 readings for HCT-15.
Supply the numeric figure in µM, leaving out any unit text.

Worked cases, answers included:
• O=C1c2cccc3cccc(c23)C(=O)N1O = 40.9
• N#C/C(=C\c1cc(Br)c(O)c(Br)c1)c1ccccn1 = 41.2
• CC(=O)c1c2c(cc3c1CC1(Cc4cc5c(cc4C1=O)CCC5)C3)CCC2 (stereo not given) = 63

Provide the reported GI50 (system: HCT-15) for CC1(Cl)CC(C)(/C=C/Cl)C(Cl)CC1Cl (stereo not given)
14.1

Provide the reported GI50 (system: HCT-15) for c1ccc(-c2c(-c3[nH]c4ccccc4c3-c3ccccc3)[nH]c3ccccc23)cc1
4.32

Provide the reported GI50 (system: HCT-15) for O=C(CCl)N1CCCCC1C1(c2cc3ccccc3[nH]2)OCCO1 (stereo not given)
4.82

Provide the reported GI50 (system: HCT-15) for O=[N+]([O-])/C(C(Cl)=C(Cl)Cl)=C(\NCc1ccccc1)Sc1ccccc1
17.3

Provide the reported GI50 (system: HCT-15) for O=C(Nc1ccn(C2CC(O)C(COC(c3ccccc3)(c3ccccc3)c3ccccc3)O2)c(=O)n1)c1ccccc1 (stereo not given)
2.59

----------
system: MDA-MB-231; test: NCI tumour cell line growth inhibition, 48 h
Active and inactive are the calls of the source. No stated cut-off is given here; in the data, active = GI50 up to about 1.1 µM and inactive = higher.
The entries below are paired with their reported GI50.

Worked cases, answers included:
• COC(=O)[C@]1(C)CCCn2c(=O)n(-c3ccccc3)c(=O)n21 = > 100 µM (inactive)
• COc1cc(/C=C/C(=O)CC(=O)/C=C/c2ccc(O)c(OC)c2)ccc1O = 17.8 µM (inactive)
• CC1=NN(C(=O)c2ccccc2O)C(=O)/C1=C/c1ccc(O)cc1 = 58.9 µM (inactive)
• COc1ccc(-c2nc(-c3cnccn3)n(Cc3ccccc3)n2)cc1 = > 100 µM (inactive)

Give the reported GI50 for this molecule. CC(C(=O)O)c1ccc(-c2ccccc2)c(F)c1 (stereo not given)
> 100 µM (inactive)

These data points were gathered from ChEMBL document CHEMBL1201862.
